- protocol notes: In vivo pharmacokinetic study
- Design: species or system male Sprague-Dawley rats
- run parameters: male, Sprague-Dawley, rat, plasma, iv, 2 mg/kg
readout: MRT last (h)
Give bare numbers, in h.

Which value of MRT last has been reported for NS(=O)(=O)c1ccc(Nc2nc(-c3ccc(F)cc3)c3ccccc3n2)cc1 [Compound 28] in the records?
3.46

====

- measured on: UniProt:O60885
- protocol notes: HTRF bromodomain binding assay, BRD4
// boundary case: IC50 equal to 10 µM maps to no; strictly smaller maps to yes

Examples from the recorded data:
INSERT INTO measurements (chemical_structure, group_label) VALUES
  ('NS(=O)(=O)c1ccc(CCNc2nc(-c3ccc(F)cc3)c3ccccc3n2)cc1', 'no'),
  ('Cc1ccc(-c2nc(Nc3ccc(S(N)(=O)=O)cc3)nc3ccc(C)cc23)cc1', 'no'),
  ('O=C(O)c1ccc(CNc2nc(-c3ccc(F)cc3)c3ccccc3n2)cc1', 'yes'),
  ('COC(=O)c1ccc(-c2nc(Nc3ccccc3S(N)(=O)=O)nc3ccccc23)cc1', 'yes');

For this compound, is IC50 lower than 10 µM? Clc1ccc(-c2nc(Nc3ccccc3)nc3ccccc23)cc1
no

====

- protocol notes: In vivo pharmacokinetic study
- Parameters: species or system male Sprague-Dawley rats
- run parameters: male, Sprague-Dawley, rat, plasma, oral, 10 mg/kg
readout: bioavailability (%)
Answers are plain numbers, in %.

Which value of bioavailability has been reported for NS(=O)(=O)c1ccc(Nc2nc(-c3ccc(F)cc3)c3ccccc3n2)cc1 [Compound 28] in the records?
43.1

====

- protocol notes: In vivo pharmacokinetic study
- Set-up: species or system male Sprague-Dawley rats
- run parameters: male, Sprague-Dawley, rat, plasma, iv, 2 mg/kg
readout: AUC(0-inf)

Which value of AUC(0-inf) has been reported for NS(=O)(=O)c1ccc(Nc2nc(-c3ccc(F)cc3)c3ccccc3n2)cc1 [Compound 28] in the records?
7130 ng·h/mL

====

- protocol notes: MTT cytotoxicity / cell viability in NRCMs
- Assay type: cell-based
- run parameters: Sprague-Dawley, rat, primary neonatal rat cardiac myocytes (NRCMs)
readout: IC50 at 24 h (µM)
Numbers only, in µM.

Which value of IC50 at 24 h has been reported for NS(=O)(=O)c1ccc(Nc2nc(-c3ccc(F)cc3)c3ccccc3n2)cc1 [Compound 28] in the records?
19.1
